Assay Protocol: modulators of S6 phosphorylation in cells, primary screen, cell-based, A549, cytoblot, luminescence, serum-stimulated (AID 1158);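 further: serum-stimulated A549 lung adenocarcinoma cells; signal is phosphorylated S6 detected by cytoblot immunostaining with HRP secondary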
Conditions Used: A549 phospho-S6 cytoblot, 5 h, higher = more signal
Property: z-score
Provide a numeric answer; units are not to be included.

Quick note, z-score for COc1ccc([Si](C)(C)[C@H]2[C@H](CC(=O)N3CCC[C@H]3CO)O[C@@]3(C(=O)N(C)c4c(Br)cc(C)cc43)[C@@H]2C)cc1 landed at 0.488

Quick note, z-score for O=C(NC1CC1)[C@@H]1c2ccccc2C(=O)N(C2CCCCC2)[C@H]1c1ccc(CO)cc1 landed at -0.0513

Quick note, z-score for COC(=O)c1ccc(OC)c(/C=C\CC(OC(=O)c2ccncc2)c2ccccc2)c1 (stereo not given) landed at 1.93

Quick note, z-score for CCCCC(=C=CC[C@@H](O)c1ccc(OCCO)cc1)CCO landed at -0.481

Quick note, z-score for COc1ccc(CCNC(=O)[C@@]2(c3ccc([N+](=O)[O-])cc3)CC(=O)N(C3CCCCC3)[C@@H]2c2ccc(CO)cc2I)cc1 landed at -0.189

* * *

Assay Protocol: basal MM1S mitochondrial membrane potential changes, profiling panel, cell-based, JC-1 fluorescence, 24 h, 100 nL compound (AID 1170); further: test concentration not given here
Conditions Used: higher = more signal
List of z-score values.
Provide a numeric answer; units are not to be included.

For orientation, consider the following solved cases.
Compound | z-score
CCCCCN1CC=CC23O[C@@H]4/C=C\CCCOC(=O)C4[C@H]2C(=O)N(CCCCCO)[C@@H]3C1=O (stereo partly drawn) | -0.235
C=CCOC(=O)[C@H]1[C@@H]2C(=O)O[C@@H](c3ccccc3)[C@@H](c3ccccc3)N2[C@@H](c2ccc(OCCOC(=O)[C@H]3C[C@H]4C(=O)NCC(=O)N4[C@H]3c3cccc(OCCO)c3)cc2)[C@]12C(=O)Nc1ccc(I)cc12 | -1.28

Quick note, z-score for C=C(/C=C\CNS(=O)(=O)c1ccc(C)cc1)[C@H](O)[C@H]1CCCN1S(=O)(=O)c1ccccc1[N+](=O)[O-] landed at -0.671

* * *

Assay Protocol: anti-His antibody binders, primary screen, artefact control for SMM control protein annotation, biochemical, small-molecule microarray, 635 nm fluorescence (AID 1128);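 further: score merges feature fluorescence with signal-to-noise for each printed compound spot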
Conditions Used: anti-His Alexa647 antibody binding, higher = more signal
Property: composite z-score
Provide a numeric answer; units are not to be included.

For orientation, consider the following solved cases.
Chemical String | composite z-score
C=CCN1C(=O)[C@@]2(O[C@@H](CCO)[C@H]([Si](C)(C)c3ccc(OC)cc3)[C@H]2C)c2cc(N3CCCCC3=O)ccc21 | 2.63
CC[C@@H](O[Si](C#C[Si](C(C)C)(C(C)C)C(C)C)(C(C)C)C(C)C)c1cn(Cc2cccc(Cl)c2)nn1 | 0.448
COc1cccc(C)c1NC(=O)O[C@H]1[C@H](OC(=O)Nc2ccccc2)[C@@H](OC(=O)Nc2ccccc2)[C@@H](OC)O[C@@H]1CO | 1.78
COc1c(C)cc(-c2cc3c(c(CCc4ccccc4)n2)[Si](C(C)C)(C(C)C)O[C@H]3c2ccccc2)cc1C | -0.439
COCCCNC(=O)[C@@]1(Cc2ccccc2I)c2ccccc2C(=O)N(Cc2ccccc2C(F)(F)F)[C@H]1c1ccc(CO)cc1 | 0.611
CO[C@H]1O[C@H](CO)[C@@H](OC(=O)Nc2cccc(F)c2)[C@H](OC(=O)Nc2ccc3c(c2)OCO3)[C@@H]1OC(=O)Nc1ccc2c(c1)OCO2 | 2.61

Next item in the queue.
Quick note, composite z-score for COc1ccc([Si](C)(C)[C@H]2[C@H](CC(=O)N(CCO)Cc3ccccc3)O[C@@]3(C(=O)N(Cc4cccc(N5CCCCC5=O)c4)c4ccccc43)[C@@H]2C)cc1 landed at 1.13
